- Tested on: RSK2(Kin.Dom.2-C-terminal);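 further: KINOMEscan kinase panel screen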
- Construct: gene RPS6KA3
- experimental_setup: concentration: 1 μM, replicates: in singlicate; n = 1
# %Inh >= 7% gives True, anything below gives False

Example results:
{"molecular_string": "COc1ccc(C)c(Nc2ccnc(Nc3ccc(-c4cnc[nH]4)cc3)n2)c1.Cl", "system_name": "RSK2(Kin.Dom.2-C-terminal)", "label_value": "False"}
{"molecular_string": "Cc1ccc(NC(=O)c2ccnc(N3CCCCC3)c2)cc1-c1ccc(C(=O)NCC2CC2)cc1", "system_name": "RSK2(Kin.Dom.2-C-terminal)", "label_value": "False"}
{"molecular_string": "CN(c1ccc(NC(=O)Nc2cccc(Cl)c2)cc1)c1ccnc(N)n1.Cl", "system_name": "RSK2(Kin.Dom.2-C-terminal)", "label_value": "False"}
{"molecular_string": "O=C(Nc1n[nH]c2cc(-c3cccs3)ccc12)C1CC1", "system_name": "RSK2(Kin.Dom.2-C-terminal)", "label_value": "False"}
{"molecular_string": "COc1ccc(NC(=O)c2ccoc2)cc1-c1ccc(C(=O)NCC2CC2)cc1", "system_name": "RSK2(Kin.Dom.2-C-terminal)", "label_value": "False"}
{"molecular_string": "CN(C)CCNS(=O)(=O)c1ccc(-c2ccnc3[nH]ccc23)cc1", "system_name": "RSK2(Kin.Dom.2-C-terminal)", "label_value": "True"}
{"molecular_string": "Cc1ccc(NC(=O)c2cccc(N3CCCCC3)c2)cc1-c1ccc(C(=O)NCC2CC2)cc1", "system_name": "RSK2(Kin.Dom.2-C-terminal)", "label_value": "True"}
{"molecular_string": "CC(C)(C)c1ccc(C(=O)Nc2cn3cc(-n4ccnc4)ccc3n2)cc1", "system_name": "RSK2(Kin.Dom.2-C-terminal)", "label_value": "False"}

Could you please find out whether COC(=O)Nc1nc2ccc(Oc3ccc(CC(=O)Nc4cc(C(F)(F)F)ccc4F)cc3)cc2[nH]1 has %Inh that meets 7% or exceeds it?
False

Could you please find out whether COC(=O)Nc1nc2ccc(Oc3ccc(NC(=O)Nc4cc(C(F)(F)F)ccc4F)cc3)cc2[nH]1.Cl has %Inh that meets 7% or exceeds it?
True

Could you please find out whether c1ccc(Oc2ccc(Nc3ccnc4cc(-c5ccc(CN6CCCCC6)o5)ccc34)cc2)nc1 has %Inh that meets 7% or exceeds it?
True

Could you please find out whether Cn1cc(-c2cnc(N)c3c(-c4ccc5c(c4)CCN5C(=O)Cc4ccccc4)csc23)cn1 has %Inh that meets 7% or exceeds it?
True

Could you please find out whether CCn1cnc2c(NCc3ccccc3)ncnc21 has %Inh that meets 7% or exceeds it?
False

Could you please find out whether Cc1cc(-c2c(-c3ccc(F)cc3)ncn2CCCN2CCOCC2)nc(N)n1 has %Inh that meets 7% or exceeds it?
False

Could you please find out whether O=C(Nc1c(F)cccc1F)c1cc(C(=O)c2ccccc2F)c[nH]1 has %Inh that meets 7% or exceeds it?
True

Could you please find out whether N#Cc1cnc2cc(-c3cnc(CNCCN4CCOCC4)s3)ccc2c1Nc1ccc(Oc2ccccc2)cc1 has %Inh that meets 7% or exceeds it?
False

Could you please find out whether COc1cccc(NC(=O)NCCNc2ccnc(Nc3ccc(F)cc3)n2)c1 has %Inh that meets 7% or exceeds it?
False

Could you please find out whether Cc1cccc(Nc2nc(N[C@H]3CCCC[C@H]3N)ncc2C(N)=O)c1.Cl has %Inh that meets 7% or exceeds it?
True
